assay procedure: Cell Viability - LYMP2-013 (AID 970);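 note: cells exposed to compound for 24 h at 37 °C; nearly all actives have a fitted effect of over 55% in size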
recorded conditions: LYMP2-013 lymphoblastoid cells viability; series mostly up to 92.2 µM
Records with an inconclusive call do not appear. Activity calls are given as the source filed them. Calls come from the whole dose curve; as a rule, active = well fitted cell-killing curve with a large enough effect; inconclusive = small, poorly fitted or top-dose-only effect; inactive = flat fitted curve, though single readings scatter. Peptide text beside a SMILES is read from it.
Allowed answers: T (active), F (inactive)

Consider the following illustrative entries.
[[record]]
compound = "CCCCC(CC)COC(=O)C(C#N)=C(c1ccccc1)c1ccccc1 (centres undefined)"
class_assignment = "F"

[[record]]
compound = "NS(=O)(=O)c1cc(C(=O)O)c(NCc2ccco2)cc1Cl"
class_assignment = "F"

[[record]]
compound = "CCc1nc(N)nc(N)c1-c1ccc(Cl)cc1"
class_assignment = "F"


Could you check what this test reported for `CCCc1cc(=O)[nH]c(=S)[nH]1` ?
F

Look up the recorded call for `CN(C)c1ccc2nc3ccc(=[N+](C)C)cc-3sc2c1` in this test.
T

Given `CS(=O)(=O)OCCCCOS(C)(=O)=O` , state the outcome it received in this test.
F

Answer briefly: the call reported for `COc1c2occc2cc2ccc(=O)oc12` in this assay.
F

What call does the record list for `Nc1ccc(S(N)(=O)=O)cc1` ?
F

Can you look up the reported call for COC(=O)[C@H](Cc1ccccc1)NC(=O)[C@@H](N)CC(=O)O (H-Asp-Phe-OMe) for me?
F
